Data provenance is paper PMC10668032.

Exercise: state measured binding signal for each of the sequences provided.
Target: SIX1 homeodomain (reference allele) (human, UniProt Q15475 108-198)
Sequence: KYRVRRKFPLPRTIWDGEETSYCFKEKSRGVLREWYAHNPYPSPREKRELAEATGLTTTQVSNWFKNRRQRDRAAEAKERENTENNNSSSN
Assay: universal protein binding microarray; Universal all-10-mer PBM (8x60K, AMADID 030236), 300 nM GST-tagged protein, Alexa Fluor 488 anti-GST; buffer, salt, pH and temperature not stated (as in Berger); high values mean tight binding
Conditions: protein: ivt; tags: N-terminal GST; dsDNA, one strand shown
The full ranking holds about 33,000 sequences; the median of “e-score” is about -0.053, and the highest 2% start at about 0.38. What follows is part of a selection rich in the highest values, with near analogues and random picks from the rest.
Answers are plain numbers, in E-score.

ACCAGGGT 0.189
ACCGGATC 0.417
CACTCCGG 0.195
CCTGGATC 0.251
TATCTAGA 0.189
CTATCTCC 0.217
CCCCGATC 0.346
CTCTCCCC 0.164
CGGGATAG 0.268
TATCAACA 0.399

Below are 3 sequences. Give each one its binding signal.
1. AGACCCCG
2. CATACAGA
3. TATACATA

a:
0.23
0.196
0.246

Below are 6 sequences. Give each one its binding signal.
1. ATCTTGTC
2. AGCTATAT
3. TATATGGA
4. ATATCTGG
5. AAGGGATA
6. ACCGGATA

a:
1. 0.153
2. 0.2
3. 0.207
4. 0.298
5. 0.37
6. 0.364

Below are 2 sequences. Give each one its binding signal.
1. AGGGATAC
2. ATCTCTCA

a:
0.415
0.252

Below are 8 sequences. Give each one its binding signal.
1. CCATACAC
2. GATGGATA
3. CCCAGATC
4. CCCGGATC
5. GATCAACA
6. GATACATA
7. ATACCCCA
8. GGATAGGA

a:
[0.174, 0.377, 0.38, 0.45, 0.281, 0.398, 0.43, 0.28]

Below are 3 sequences. Give each one its binding signal.
1. GACACACC
2. GATACAGA
3. ATAACCCC

a:
1. 0.165
2. 0.268
3. 0.251

Below are 6 sequences. Give each one its binding signal.
1. AGCCCCTA
2. CTATCTCA
3. CGGGATAA
4. CATGGATA
5. ATCCGTCG
6. GCATCTCA

a:
[0.153, 0.256, 0.17, 0.3, 0.239, 0.186]

Below are 3 sequences. Give each one its binding signal.
1. AGATAGCT
2. AATATCAG
3. GCAATATA

a:
1. 0.178
2. 0.225
3. 0.16

Below are 6 sequences. Give each one its binding signal.
1. CATGGTGA
2. CCCGGGTC
3. GATACACA
4. GAGGGATA
5. AGCGGATC
6. ATCTTCCC

a:
[0.225, 0.288, 0.354, 0.412, 0.375, 0.174]

* * *

Biological target: SIX1 homeodomain (reference allele) (human, UniProt Q15475 108-198)
Sequence: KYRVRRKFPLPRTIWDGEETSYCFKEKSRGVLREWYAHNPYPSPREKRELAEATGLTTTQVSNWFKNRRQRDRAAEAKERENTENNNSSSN
Assay: universal protein binding microarray; Universal all-10-mer PBM (8x60K, AMADID 030236), 300 nM GST-tagged protein, Alexa Fluor 488 anti-GST; buffer, salt, pH and temperature not stated (as in Berger); high values mean tight binding
Settings: protein: ivt; tags: N-terminal GST; dsDNA, one strand shown
In all, about 33,000 sequences were measured (“e-score”: median about -0.053, highest 2% from about 0.38 on). What follows is part of a selection rich in the highest values, with near analogues and random picks from the rest.
RECORDED_ENDPOINT: binding signal (E-score)
Give bare numbers, in E-score.

Consider the worked cases shown below.
CCATCCGA 0.218
AGATAAAG 0.183
CTAAGATA 0.241
ATCAGGAT 0.394
ATCAGGAG 0.188
AGGGTATC 0.491

Below are 2 sequences. Give each one its binding signal.
1. CACACCCC
2. ATCATGAC

a:
0.26
0.197

* * *

Molecular target: SIX1 homeodomain (reference allele) (human, UniProt Q15475 108-198)
Sequence: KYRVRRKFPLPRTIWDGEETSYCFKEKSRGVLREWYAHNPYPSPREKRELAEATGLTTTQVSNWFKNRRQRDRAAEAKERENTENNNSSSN
Assay: universal protein binding microarray; Universal all-10-mer PBM (8x60K, AMADID 030236), 300 nM GST-tagged protein, Alexa Fluor 488 anti-GST; buffer, salt, pH and temperature not stated (as in Berger); high values mean tight binding
Details: protein: ivt; tags: N-terminal GST; dsDNA, one strand shown
Over roughly 33,000 sequences, “e-score” has its median near -0.053; the highest 2% begin near 0.38. This is one part of a sample in which the highest values are shown more often than they occur.
Entries whose binding signal is below 0.3 E-score take MET; entries at or above 0.3 E-score take NOT MET.

ACCTATCG MET
CAAGATCA MET
ATCGCATA MET
ATCGATCC NOT MET
ATATAGCC MET
ACATATCT MET

q: Confirm or reject: binding signal of `GTATGAAC` lies strictly below 0.3 E-score
a: MET

* * *

Target: SIX1 homeodomain (reference allele) (human, UniProt Q15475 108-198)
Sequence: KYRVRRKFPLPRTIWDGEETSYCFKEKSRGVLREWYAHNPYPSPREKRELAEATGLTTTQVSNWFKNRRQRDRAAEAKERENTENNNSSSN
Assay: universal protein binding microarray; Universal all-10-mer PBM (8x60K, AMADID 030236), 300 nM GST-tagged protein, Alexa Fluor 488 anti-GST; buffer, salt, pH and temperature not stated (as in Berger); high values mean tight binding
Settings: protein: ivt; tags: N-terminal GST; dsDNA, one strand shown
Whole data set: some 33,000 sequences, median “e-score” near -0.053, cut for the highest 2% near 0.38. The sample as a whole holds a higher share of the highest values than the screen did.
Exercise: state measured binding signal for each of the sequences provided.
Numbers only, in E-score.

GTATCGAA 0.43
ATATCGAC 0.379

Below are 6 sequences. Give each one its binding signal.
1. ATAGAATA
2. AGATAGGA
3. GGATCGAA
4. CTGAAACC
5. ATCTTACC
6. ATATTCCC

a:
1: 0.162; 2: 0.175; 3: 0.267; 4: 0.155; 5: 0.296; 6: 0.305

* * *

Biological target: SIX1 homeodomain (reference allele) (human, UniProt Q15475 108-198)
Sequence: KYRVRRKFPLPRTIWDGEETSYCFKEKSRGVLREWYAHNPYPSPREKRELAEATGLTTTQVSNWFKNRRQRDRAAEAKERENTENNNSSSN
Experiment: universal protein binding microarray; Universal all-10-mer PBM (8x60K, AMADID 030236), 300 nM GST-tagged protein, Alexa Fluor 488 anti-GST; buffer, salt, pH and temperature not stated (as in Berger); high values mean tight binding
Settings: protein: ivt; tags: N-terminal GST; dsDNA, one strand shown
The full ranking holds about 33,000 sequences; the median of “e-score” is about -0.053, and the highest 2% start at about 0.38. Shown is part of a subset that was picked to be rich in the highest values.
Entries whose binding signal is below 0.3 E-score take class 1; entries at or above 0.3 E-score take class 0.

CGTGATAG class 1
CGTGATAC class 0
AGTGATAC class 0
ATCAGCGG class 1
AGTGATAT class 0

q: Confirm or reject: binding signal of `AGACTATA` lies strictly below 0.3 E-score
a: class 1

q: Confirm or reject: binding signal of `CGTGACAC` lies strictly below 0.3 E-score
a: class 1

q: Confirm or reject: binding signal of `GGTGATAC` lies strictly below 0.3 E-score
a: class 0

q: Confirm or reject: binding signal of `AACTACAC` lies strictly below 0.3 E-score
a: class 1

q: Confirm or reject: binding signal of `AGTGATAG` lies strictly below 0.3 E-score
a: class 0

* * *

Target: SIX1 homeodomain (reference allele) (human, UniProt Q15475 108-198)
Sequence: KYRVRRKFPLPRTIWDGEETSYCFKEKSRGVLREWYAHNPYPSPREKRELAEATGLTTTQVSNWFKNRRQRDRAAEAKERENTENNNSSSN
Test: universal protein binding microarray; Universal all-10-mer PBM (8x60K, AMADID 030236), 300 nM GST-tagged protein, Alexa Fluor 488 anti-GST; buffer, salt, pH and temperature not stated (as in Berger); high values mean tight binding
Conditions: protein: ivt; tags: N-terminal GST; dsDNA, one strand shown
Whole data set: some 33,000 sequences, median “e-score” near -0.053, cut for the highest 2% near 0.38. The sample as a whole holds a higher share of the highest values than the screen did.
RECORDED_ENDPOINT: binding signal (E-score)
One number for each entry, in E-score.

Below are 3 sequences. Give each one its binding signal.
1. ATCATCAC
2. GATCATGA
3. CCTATCAG

a:
0.228
0.273
0.326

Below are 6 sequences. Give each one its binding signal.
1. CCAATACC
2. ATTATCAG
3. GGTCATGA
4. CCGATAGG
5. GCGATAGC
6. ATATGCCG

a:
[0.324, 0.168, 0.169, 0.348, 0.165, 0.211]

Below are 5 sequences. Give each one its binding signal.
1. GCGATACC
2. ACAGATCG
3. TATCATGA
4. CGATCTAG
5. GAACCCGA

a:
1. 0.483
2. 0.235
3. 0.382
4. 0.158
5. 0.19

Below are 3 sequences. Give each one its binding signal.
1. GATCAGGA
2. CCGATACA
3. CCGATACG

a:
1. 0.339
2. 0.355
3. 0.425
